Tested on: NCI-H1299
protocol_details: Effective concentration against human non-small cell lung cancer H1299 cells inducing apoptosis activity was measured by using cell and caspase-based HTS assay
Type: functional
pEC50: −log10 of the molar value.
measured_attribute: pEC50

Recorded pEC50, per entry:
COc1cc(C2C(C#N)=C(N)Oc3cc(N(C)C)ccc32)cc2c1OCO2 (configuration not stated)
7.03
COc1ccc2c(c1)OC(N)=C(C#N)C2c1cc(Br)c(OC)c(OC)c1 (configuration not stated)
7.47
CCNc1ccc2c(c1)OC(N)=C(C#N)C2c1cc(OC)c2c(c1)OCO2 (configuration not stated)
6.40
CCN(CC)c1ccc2c(c1)OC(N)=C(C#N)C2c1cc(OC)c2c(c1)OCO2 (configuration not stated)
6.28

A = COc1cc(C2C(C#N)=C(N)Oc3cc(N)ccc32)cc(Br)c1OC (configuration not stated)
B = COc1ccc2c(c1)OC(N)=C(C#N)C2c1cc(OC)c2c(c1)OCO2 (configuration not stated)
Consider entries A and B . Which has the numerically lower pEC50? The response must carry the label of the picked entry. B
(B: 6.64, A: 7.17)

A = CCNc1ccc2c(c1)OC(N)=C(C#N)C2c1cc(Br)c(OC)c(OC)c1 (configuration not stated)
B = COc1cc(C2C(C#N)=C(N)Oc3cc(Cl)ccc32)cc(Br)c1OC (configuration not stated)
Pick the one with the larger pEC50: A vs B Label of pick, please. A
(A: 7.57, B: 6.54)

I = COc1cc(C2C(C#N)=C(N)Oc3cc4c(cc32)OCO4)cc2c1OCO2 (configuration not stated)
II = CCNc1cc2c(cc1C)C(c1cc(OC)c3c(c1)OCO3)C(C#N)=C(N)O2 (configuration not stated)
Between these two entries, I and II , state which has the higher pEC50. Kindly give the label for the entry you pick. I
(I: 6.57, II: 5.85)

1 = COc1cc(C2C(C#N)=C(N)Oc3cc(O)ccc32)cc2c1OCO2 (configuration not stated)
2 = COc1cc(C2C(C#N)=C(N)Oc3cc(N)ccc32)cc2c1OCO2 (configuration not stated)
# min-compare on pEC50 between 1 and 2 Indicate your choice by writing its label. 1

* * *

System: NCI-H1299
protocol_details: Effective concentration against human non-small cell lung cancer H1299 cells inducing apoptosis activity was measured by using cell and caspase-based HTS assay
Format: functional
measured_attribute: EC50

Some entries whose results are on file:
COc1cc2c(cc1OC)C(c1cc(OC)c3c(c1)OCO3)C(C#N)=C(N)O2 (stereo not given)
> 10 µM
COc1cc(C2C(C#N)=C(N)Oc3c2ccc(N)c3C)cc2c1OCO2 (stereo not given)
0.77 µM
COc1cc(C2C(C#N)=C(N)Oc3cc(N4CCOCC4)ccc32)cc2c1OCO2 (stereo not given)
> 10 µM
COc1cc(OC)c2c(c1)OC(N)=C(C#N)C2c1cc(OC)c2c(c1)OCO2 (stereo not given)
> 10 µM

Continue with the compound presented below.
// compound COc1cc(C2C(C#N)=C(N)Oc3cc(Nc4ccccc4)ccc32)cc2c1OCO2 (stereo not given) , assay NCI-H1299, EC50 value: > 10 µM
